- Method summary: Protein binding in mouse plasma at 1 uM incubated for 2 hrs by equilibrium dialysis based HPLC-MS/MS analysis
- Assay type: ADME, cell-free
- Assay setup: read-out: PPB (converted)
Exercise: state measured fraction unbound at 2 h, 1 µM for each of the compounds provided.
Write no unit; give the number alone.

Which value of fraction unbound at 2 h, 1 µM has been reported for COc1cc(-c2ccc(O[C@@H](C)C(F)(F)F)nc2)ccc1N(CCOC(F)F)C(=O)[C@@H]1C[C@H]1c1ccncn1 in the records?
0.004

Now consider CC(C)Oc1ccc(-c2ccc(N(CCOC(F)F)C(=O)[C@@H]3C[C@H]3c3ccncn3)c3ncnn23)cc1 .
0.062

Now the same for CO[C@H](C)[C@H](N)CN(C(=O)[C@@H]1C[C@H]1c1ccncn1)c1ccc(-c2ccc(OC(C)C)nc2)cc1
0.052

Reference source for all entries: ChEMBL document CHEMBL5500420
